system: K-562 leukemia; test: NCI tumour cell line growth inhibition, 48 h
Quick reference for TGI among some molecules
Reported property: TGI

INSERT INTO measurements (molecule, measured_on, observed) VALUES
  ('CCc1nc2c(O)ccc(O)c2nc1C', 'K-562 leukemia', '> 20.8 µM'),
  ('O=C1CCC2(c3ccc(F)cc3)Nc3ccccc3N12 (configuration not stated)', 'K-562 leukemia', '> 100 µM'),
  ('CCOn1cc(C[C@@]2(O)C(=O)OC3[C@@H](O)CO[C@@]32O)c2ccccc21 (some centres not stated)', 'K-562 leukemia', '> 100 µM'),
  ('COc1nc(OC)c2c(=O)oc(-c3ccccc3)cc2n1', 'K-562 leukemia', '> 100 µM'),
  ('CCOC(=O)c1nc2c3c(ncn2n1)Oc1c(c(-c2ccccc2)nn1-c1ccccc1)C3c1ccc(OC)c(OC)c1 (configuration not stated)', 'K-562 leukemia', '> 100 µM'),
  ('O=C1Nc2ccccc2C(=O)OC(Cc2ccccc2)=Nc2ccccc21', 'K-562 leukemia', '> 100 µM'),
  ('Cc1cc(Br)c(N2C3=C(CC4=C2CCCC4=O)C(=O)CCC3)c(Br)c1', 'K-562 leukemia', '> 100 µM'),
  ('Brc1c[n+](Cc2ccc3ccccc3c2)cn1Cc1ccc2ccccc2c1', 'K-562 leukemia', '10.6 µM'),
  ('OCC(O)COc1ccc(Br)cc1 (configuration not stated)', 'K-562 leukemia', '> 100 µM'),
  ('COc1c2cc(C(C)(C)C)cc1CSCc1cc(C(C)(C)C)cc(c1OC)CCCCC2', 'K-562 leukemia', '> 50 µM'),
  ('c1cnc2c(c1)-n1cccc1C1(CCOCC1)NN2', 'K-562 leukemia', '> 100 µM'),
  ('CCOC(=O)NNC(=O)NCCNC(=O)NNC(=O)OCC', 'K-562 leukemia', '> 100 µM'),
  ('CCCCOC1CC2(c3ccc(OC)cc3)C(=O)c3ccccc3N2O1 (configuration not stated)', 'K-562 leukemia', '> 100 µM'),
  ('Cc1ccc(OP2(=O)Oc3ccc4ccccc4c3CN2c2ccc(Cl)cc2)cc1C (configuration not stated)', 'K-562 leukemia', '> 100 µM'),
  ('COCCNCC(O)Cn1c2ccc(Cl)cc2c2cc(Cl)ccc21 (configuration not stated)', 'K-562 leukemia', '4.64 µM'),
  ('C=C1C(=O)O[C@@H]2C[C@]3(C)[C@@H](C[C@H]12)[C@](C)(O)CC[C@@H]3O', 'K-562 leukemia', '> 100 µM'),
  ('Nc1ccccc1C#C/C=C\C#Cc1ccc(F)cc1F', 'K-562 leukemia', '> 100 µM');

* * *

test system: MALME-3M melanoma; assay: NCI tumour cell line growth inhibition, 48 h
Reported property: GI50

INSERT INTO assay_data (compound, observed) VALUES
  ('COc1ccc(-c2cc3cccc(OC)c3c(=O)o2)cc1OC', '> 100 µM'),
  ('COCCNCC(O)Cn1c2ccc(Cl)cc2c2cc(Cl)ccc21 (stereo unspecified)', '1.98 µM'),
  ('COc1ccc2c(c1)C(=O)c1c-2c(NCCCN(C)C)nc2ccccc12', '3.86 µM'),
  ('O=C1Nc2ccc(Cl)cc2/C1=C\c1c(-c2ccc(F)cc2)nc2ccccn12', '3.8 µM'),
  ('CN(C(=O)C1CCCCC1)c1ccccc1I(=O)=O', '14.6 µM'),
  ('O=C1C(=O)c2ccc(Br)cc2-c2cc(Br)ccc21', '7.74 µM');
